Assay name: Half life in dog liver microsomes
Assay type: ADME, Canis lupus familiaris, Microsome
# reported half-life; entries follow

Compound	half-life
C[C@@H]1CCCN1CCCOc1ccc(C2=NNC(=O)CC2)cc1	> 40 min
C[C@@H]1CCCN1CCCOc1ccc(C2=NNC(=O)C(C)(C)C2)cc1	> 40 min
CC1CC(=O)NN=C1c1ccc(OCCCN2CCC[C@H]2C)cc1 (stereo in doubt; 19a)	> 40 min

###

IC50, Cytochrome P450 2C9 (Homo sapiens, UniProt P11712), per-entry values.

Compound	IC50
CC1CC(=O)NN=C1c1ccc(OCCCN2CCC[C@H]2C)cc1 (single isomer, unassigned; isomer 2)	> 30 µM
C[C@@H]1CCCN1CCCOc1ccc(C2=NNC(=O)CC2)cc1	> 30 µM
